Each recorded value in this set is attributed to patent US8969248B2.

- Tested on: Pyricularia oryzae
- Assay type: in vivo
- applied-conditions: rice, protective spray, 250 ppm, evaluation 5 days after inoculation
What Efficacy (%) was measured for each of the following?
Write it as a number; the unit % goes unstated.

Q) Recorded Efficacy (%) of OC(Cn1ncnc1I)(c1ccc(F)cc1F)C1(Oc2ccc(F)cc2)CC1 (stereo not shown) [Compound 10] , please.
A) 97

Q) Recorded Efficacy (%) of OC(Cc1ccccc1Cl)(Cn1ncnc1I)C1(Cl)CC1 (stereo not shown) [Compound 3] , please.
A) 94

Q) Recorded Efficacy (%) of OC(Cn1ncnc1I)(c1ccc(F)cc1F)C1(Oc2ccccc2Cl)CC1 (stereo not shown) [Compound 11] , please.
A) 93
